Values of IC50 for Amine oxidase [flavin-containing] B (Rattus norvegicus), collected from a number of published sources:
We'd kindly ask you to apply these IC50 classes: zone 1: < 2 nM; zone 2: ≥ 2 nM and < 10 nM; zone 3: ≥ 10 nM

{"compound": "Cc1c(C)c2ccc(OCc3nc(C(C)C)no3)cc2oc1=O", "classification": "zone 1"}
{"compound": "O=C1NC(=O)C(Cc2ccc(OCC34CC5CC(CC(C5)C3)C4)cc2)S1 (centres unmarked)", "classification": "zone 3"}
{"compound": "Cc1cc(COc2ccc3c(C)c(C)c(=O)oc3c2)on1", "classification": "zone 2"}
{"compound": "Cc1c(C)c2ccc(OCC3COc4ccccc4O3)cc2oc1=O (centres unmarked)", "classification": "zone 2"}
{"compound": "Cc1c(C)c2ccc(OCc3nc(C4CC4)no3)cc2oc1=O", "classification": "zone 1"}
{"compound": "Cc1c(C)c2ccc(OCc3csc(C(C)C)n3)cc2oc1=S", "classification": "zone 2"}
{"compound": "NC(=O)Cc1cc(=O)oc2cc(OCc3cccc(F)c3)ccc12", "classification": "zone 3"}
{"compound": "C[C@@H](C(N)=O)N(C)Cc1ccc(OCc2cccc(Cl)c2)cc1", "classification": "zone 3"}
{"compound": "Cc1c(C)c2ccc(OCc3nnc(C(C)C)s3)cc2oc1=S", "classification": "zone 1"}
{"compound": "CCCc1cc(COc2ccc3c(C)c(C)c(=O)oc3c2)on1", "classification": "zone 1"}
{"compound": "Cc1c(C)c2ccc(OCc3nc(C4CCCC4)no3)cc2oc1=O", "classification": "zone 1"}
{"compound": "Cc1c(C)c2cc(Cl)c(OCc3ccc(C(C)C)cc3)cc2oc1=O", "classification": "zone 3"}
{"compound": "Cc1c(C)c2cc(Cl)c(OCc3nnc(C4CC4)s3)cc2oc1=S", "classification": "zone 2"}
{"compound": "Cc1c(C)c2ccc(OCc3ccc4ccccc4c3)cc2oc1=O", "classification": "zone 3"}
{"compound": "O=C1NC(=O)C(=Cc2cccc(OCc3ccccc3)c2)S1", "classification": "zone 3"}
{"compound": "Cc1c(C)c2cc(Cl)c(OCc3nnc(C(C)C)s3)cc2oc1=S", "classification": "zone 2"}
{"compound": "CN(C)C(=O)CC1=CCOc2cc(OCc3ccccc3)ccc21", "classification": "zone 3"}
{"compound": "Cc1nc(COc2ccc3c(C)c(C)c(=O)oc3c2)cs1", "classification": "zone 2"}
{"compound": "Cc1cc2ccc(OCc3ccc(C(C)C)cc3)cc2oc1=O", "classification": "zone 2"}
{"compound": "Cc1c(C)c2ccc(OCc3cc(C4CC4)no3)cc2oc1=O", "classification": "zone 1"}

###

Recorded IC50 for compounds tested on Amine oxidase [flavin-containing] B (Rattus norvegicus), drawn from a number of studies.

{"compound": "NC(=O)[C@H](CO)NCc1ccc(OCc2cccc(F)c2)cc1", "assayedSystem": "Amine oxidase [flavin-containing] B (Rattus norvegicus)", "unitLabel": "µM", "IC50": 0.14}
{"compound": "Cc1nnc(COc2ccc3c(C)c(C)c(=O)oc3c2)s1", "assayedSystem": "Amine oxidase [flavin-containing] B (Rattus norvegicus)", "unitLabel": "µM", "IC50": 0.003}
{"compound": "CNC(C)COc1ccc(OCc2cccc(Cl)c2)c(C(C)=O)c1 (stereo not drawn)", "assayedSystem": "Amine oxidase [flavin-containing] B (Rattus norvegicus)", "unitLabel": "µM", "IC50": 7}
{"compound": "Cc1c(C)c2ccc(OCc3coc(Cc4ccccc4)c3)cc2oc1=O", "assayedSystem": "Amine oxidase [flavin-containing] B (Rattus norvegicus)", "unitLabel": "µM", "IC50": 0.0016}
{"compound": "CCc1cc2c(C)c(C)c(=O)oc2cc1OCc1cc(C(C)C)n(C)n1", "assayedSystem": "Amine oxidase [flavin-containing] B (Rattus norvegicus)", "unitLabel": "µM", "IC50": 0.0091}
{"compound": "Cc1c(C)c2ccc(OCc3coc(Cc4cccc(Cl)c4)c3)cc2oc1=O", "assayedSystem": "Amine oxidase [flavin-containing] B (Rattus norvegicus)", "unitLabel": "µM", "IC50": 0.017}

###

Please find below IC50 data on Amine oxidase [flavin-containing] B (Rattus norvegicus, UniProt P19643) compiled from the literature.
reportedProperty: IC50 (nM)

{"compound": "CC(=O)c1cc(OCc2cccc(Cl)c2)ccc1OCCCO", "reportedProperty": "IC50", "reportedMeasurement": 100}
{"compound": "COCC1CN(c2ccc3nc(N(C)CCC#N)sc3c2)C(=O)O1 (stereo not shown)", "reportedProperty": "IC50", "reportedMeasurement": 990000}
{"compound": "Cc1c(C)c2ccc(OCc3cc(C4CC4)on3)cc2oc1=O", "reportedProperty": "IC50", "reportedMeasurement": 0.84}
{"compound": "NC(=O)[C@@H](CO)NCc1ccc(OCc2cccc(Cl)c2)cc1", "reportedProperty": "IC50", "reportedMeasurement": 110}
{"compound": "Cc1c(C)c2cc(Cl)c(OCc3ccccn3)cc2oc1=O", "reportedProperty": "IC50", "reportedMeasurement": 0.74}
{"compound": "Cc1cc(=O)oc2cc(OCc3ccc(C(C)C)cc3)ccc12", "reportedProperty": "IC50", "reportedMeasurement": 4.7}
{"compound": "Cc1nnc(COc2cc3oc(=O)c(C)c(C)c3cc2Br)s1", "reportedProperty": "IC50", "reportedMeasurement": 1.1}
{"compound": "Cc1ccc(COc2ccc3c(C)c(C)c(=O)oc3c2)s1", "reportedProperty": "IC50", "reportedMeasurement": 0.51}
{"compound": "N#CCCCN1C(=O)SC(=Cc2cccc(OCc3ccccc3)c2)C1=O", "reportedProperty": "IC50", "reportedMeasurement": 100}
{"compound": "Cc1c(Cl)c(=O)oc2cc(OCc3csc(C4CC4)n3)c(Cl)cc12", "reportedProperty": "IC50", "reportedMeasurement": 2.2}

###

// cross-source set; read-out = pIC50; system = Amine oxidase [flavin-containing] B (Rattus norvegicus, UniProt P19643)
pIC50: −log10 of the molar value.
reportedProperty: pIC50

{"compound": "CC(C)c1ccc(COc2ccc3ccc(=O)oc3c2)cc1", "operatorSymbol": "=", "reportedMeasurement": 8.74}
{"compound": "Cc1c(C)c2ccc(OCc3csc(C4CC4)n3)cc2oc1=O", "operatorSymbol": "=", "reportedMeasurement": 8.85}
{"compound": "Cc1c(C)c2ccc(OCc3cc(C4CCC4)no3)cc2oc1=O", "operatorSymbol": "=", "reportedMeasurement": 9.11}
{"compound": "N#CCCCCN1C(=O)SC(=Cc2cccc(OCc3ccccc3)c2)C1=O", "operatorSymbol": "=", "reportedMeasurement": 6.15}
{"compound": "COCC1CN(c2ccc3nc(CCC#N)sc3c2)C(=O)O1 (stereo not shown)", "operatorSymbol": "=", "reportedMeasurement": 3.31}
{"compound": "CN(CCC#N)c1nc2ccc(N3CC(CO)OC3=O)cc2s1 (stereo not shown)", "operatorSymbol": "=", "reportedMeasurement": 2.65}
{"compound": "CCCCCCOc1ccc(CC2SC(=O)NC2=O)cc1 (stereo not shown)", "operatorSymbol": "=", "reportedMeasurement": 7.00}
{"compound": "Cc1c(C)c2ccc(OCc3cc(C4CCOC4)no3)cc2oc1=O (stereo not shown)", "operatorSymbol": "=", "reportedMeasurement": 8.44}
{"compound": "CC(C)c1ccc(COc2ccc3ccc(=S)oc3c2)cc1", "operatorSymbol": "=", "reportedMeasurement": 8.52}
{"compound": "Cc1noc(COc2ccc3c(C)c(C)c(=O)oc3c2)n1", "operatorSymbol": "=", "reportedMeasurement": 8.37}
{"compound": "C[C@H](NCc1ccc(OCC2CCCCC2)cc1)C(N)=O", "operatorSymbol": "=", "reportedMeasurement": 7.52}
{"compound": "COC[C@H]1CN(c2ccc3nc(CCCCC#N)sc3c2)C(=O)O1", "operatorSymbol": "<", "reportedMeasurement": 4.00}
{"compound": "Cc1c(Cl)c(=O)oc2cc(OCc3ccc(C(C)C)cc3)ccc12", "operatorSymbol": "=", "reportedMeasurement": 8.37}
{"compound": "NC(=O)[C@H](CO)NCc1ccc(OCc2cccc(Cl)c2)cc1", "operatorSymbol": "=", "reportedMeasurement": 7.40}
{"compound": "Cc1nnc(COc2ccc3c4c(c(=O)oc3c2)CCCC4)s1", "operatorSymbol": "=", "reportedMeasurement": 8.15}
{"compound": "Cc1nnc(COc2ccc3c(C)c(Cl)c(=O)oc3c2)s1", "operatorSymbol": "=", "reportedMeasurement": 8.24}
{"compound": "Cc1c(C)c2ccc(OCc3cc(C(C)C)no3)cc2oc1=O", "operatorSymbol": "=", "reportedMeasurement": 9.14}
{"compound": "N#CCN1C(=O)SC(=Cc2ccc(OCCc3ccccc3)cc2)C1=O", "operatorSymbol": "=", "reportedMeasurement": 5.70}
{"compound": "O=C1NC(=O)C(=Cc2ccc(OCc3cccc(Cl)c3)cc2)S1", "operatorSymbol": "=", "reportedMeasurement": 4.52}
